- System under test: human GLP1-R (Homo sapiens, UniProt P43220)
- Sequence (P43220 24-463): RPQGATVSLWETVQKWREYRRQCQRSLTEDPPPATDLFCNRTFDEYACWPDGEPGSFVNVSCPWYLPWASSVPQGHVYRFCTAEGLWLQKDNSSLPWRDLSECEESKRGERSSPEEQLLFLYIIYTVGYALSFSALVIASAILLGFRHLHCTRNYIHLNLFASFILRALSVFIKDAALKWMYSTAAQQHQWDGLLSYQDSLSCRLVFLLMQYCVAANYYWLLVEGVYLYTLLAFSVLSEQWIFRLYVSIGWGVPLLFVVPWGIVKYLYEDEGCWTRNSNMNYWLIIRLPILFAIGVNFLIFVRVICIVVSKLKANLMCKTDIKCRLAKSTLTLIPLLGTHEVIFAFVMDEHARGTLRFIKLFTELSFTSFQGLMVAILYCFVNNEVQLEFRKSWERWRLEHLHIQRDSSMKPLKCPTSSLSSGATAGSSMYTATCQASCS
- Experiment description: GLP1-R internalization assay in HEK293 cells
- Assay type: cell-based
- Particulars: normalized to maximum concentration of GLP-1 (100%)
Starred links: 1 amine or outer side, 2 acyl side, 3 side chain; linkers in the order of their positions; H or OH if unused. Non-standard residues stand in square brackets, D forms with d. Groups on a side chain read outwards from the residue. No end group written: not given here. *: point of attachment. C18 diacid = O=C(O)CCCCCCCCCCCCCCCCC(=O)*; γGlu = O=C(O)[C@H](CCC(=O)[*:2])N[*:1]; αMe4Pal = C[C@](N)(Cc1ccncc1)C(=O)O; 4Pal = N[C@@H](Cc1ccncc1)C(=O)O; αMeL = CC(C)C[C@](C)(N)C(=O)O; Orn = NCCC[C@H](N)C(=O)O; AEEA = NCCOCCOCC(=O)O; Aib = CC(C)(N)C(=O)O
Observation type: Internalization % TOP (%)

>>> recorded_measurement("H-Y[Aib]QGTFTSDFS[Orn][αMeL]LDKK([AEEA-γGlu-C18 diacid])AQ[Aib]AFIEWLLEGGPSSGAPPPSGS-NH2 [Example 168]")
38.7
>>> recorded_measurement("H-Y[Aib]QGTFTSDFS[Orn][αMeL]LDKK([AEEA-AEEA-γGlu-C18 diacid])AQ[Aib]AFIEYLLE[dA]GPSSGEPPPSGE-NH2 [Example 117]")
51
>>> recorded_measurement("H-Y[Aib]QGTFTSD[4Pal]SQ[αMeL]LDKK([AEEA-γGlu-C18 diacid])AQ[αMe4Pal]AFIEYLIE[Aib]GESSGAPPPSGE-NH2 [Example 227]")
59.4
>>> recorded_measurement("Y[Aib]QGTFTSDFS[Orn][αMeL]LDKK([AEEA-AEEA-γGlu-C18 diacid])AQ[Aib]AFIEYLLE[dA]GPSSG[4Pal]PPPSGS-NH2 [Example 254]")
47.8
>>> recorded_measurement("H-Y[Aib]QGTFTSDFS[Orn][αMeL]LDKK([AEEA-AEEA-γGlu-C18 diacid])AQ[Aib]AFIEYLLE[dA]GPSSGHPPPSGS-NH2 [Example 253]")
55.2
>>> recorded_measurement("H-Y[Aib]QGTFTSDFS[Orn][αMeL]LDKK([AEEA-γGlu-C18 diacid])AQ[Aib]AFIEYLLEGG[4Pal]SSGAPPPGGS-NH2 [Example 163]")
37.8
